The origin of these recorded values is patent US20250034216A1.

- target.system: HMOX2_C282 (Homo sapiens)
- Construct: endogenous in cells; host or cells: 22Rv1
- Sequence (P30519 whole entry): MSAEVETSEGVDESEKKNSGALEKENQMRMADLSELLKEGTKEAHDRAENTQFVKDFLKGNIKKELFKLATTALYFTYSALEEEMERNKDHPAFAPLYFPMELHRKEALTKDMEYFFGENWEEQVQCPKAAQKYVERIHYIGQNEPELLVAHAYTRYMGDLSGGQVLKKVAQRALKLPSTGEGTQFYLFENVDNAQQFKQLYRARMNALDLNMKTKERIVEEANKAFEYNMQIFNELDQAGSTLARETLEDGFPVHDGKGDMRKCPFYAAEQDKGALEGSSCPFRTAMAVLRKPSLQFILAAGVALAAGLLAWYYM
- protocol: IA-DTB cysteine engagement
- Type: binding
- experimental.setup: 22Rv1 cells, 20 μM probe, 1 h, relative to DMSO
measured.property: % engagement HMOX2_C282 (%)
Answer with a number only, understood to be in %.

In the examples that follow, each entry is paired with its recorded % engagement HMOX2_C282.
>>> print(df.to_string())
                                   compound  quantitative_result
0  C=CC(=O)N1C[C@H](c2ccc(Br)cc2)[C@@H]1C(=O)Nc1cccc2cccnc12                96.25
1  C=CC(=O)N1C[C@H](c2ccc(Br)cc2)[C@H]1C(=O)Nc1cccc2cccnc12 [MY-3B]                97.75

Q. Request - read-out % engagement HMOX2_C282 | tested on HMOX2_C282 (Homo sapiens) | compound `C=CC(=O)N1C[C@@H](c2ccc(Br)cc2)[C@H]1C(=O)Nc1cccc2cccnc12`
A. 93.5

Q. // map C=CC(=O)N1C[C@H](c2ccc(Br)cc2)[C@H]1C(=O)Nc1cccc2cccnc12 [MY-3A] to recorded % engagement HMOX2_C282 (system: HMOX2_C282 (Homo sapiens))
A. 96.25
